Experimental details: Therapeutic ratio of CC50 for human HeLa cells to EC50 for Poliovirus Sabin 2 infected in human HeLa cells
Assay type: toxicity, cell-based
Experimental conditions: read-out: Ratio CC50/EC50
For each entry below, report its selectivity ratio value.

Task: Bench note: what selectivity ratio did Cc1ccc(C(=O)CCCCSc2ccc(C3=NCCO3)cc2)s1 show?
Output: 146

Task: # selectivity ratio lookup, item Cc1ccc(C(=O)CCC/C=C/c2ccc(C3=NCCO3)cc2)s1
Output: > 1850

Task: Using the record for Cc1ccc(C(=O)CCCCOc2ccc(C3=NCCO3)cc2)s1 , report its selectivity ratio.
Output: > 1670

---

Test system: Poliovirus 1
Experimental details: Antiviral activity against Human poliovirus 1 10695 infected in human HeLa cells assessed as reduction in virus-induced cytopathic effect after 72 hrs by crystal violet staining-based assay
Format: functional, organism-based
Experimental conditions: Enterovirus C, 10695, HeLa
Give pEC50 for every item shown.
API: returns pEC50 as number; meaning -log10 of concentration in mol/L.

Task: Given the entry Cc1ccc(C(=O)CCCCOc2ccc(C3=NCCO3)cc2)s1 , report its measured pEC50.
Output: 5.08

Task: Which value of pEC50 has been reported for Cc1ccc(C(=O)CCC/C=C/c2ccc(C3=NCCO3)cc2)s1 in the records?
Output: 6.24

Task: What does the data say about its pEC50? Entry: Cc1ccc(C(=O)CCCCSc2ccc(C3=NCCO3)cc2)s1
Output: 5.13

---

Assign EC50 to each entry below.
Test system: Poliovirus 1
Experimental details: Antiviral activity against Human poliovirus 1 10237 infected in human HeLa cells assessed as reduction in virus-induced cytopathic effect after 72 hrs by crystal violet staining-based assay
Type: functional, organism-based
Experimental conditions: Enterovirus C, 10237, HeLa
Please report the result as a number followed by the unit.

Task: For the compound shown here, Cc1ccc(C(=O)CCCCOc2ccc(C3=NCCO3)cc2)s1 , give the reported EC50.
Output: 5.75 µM

Task: # get_value(readout='EC50', item= Cc1ccc(C(=O)CCCCSc2ccc(C3=NCCO3)cc2)s1 )
Output: 6.47 µM

Task: Could you share which EC50 value was measured for Cc1ccc(C(=O)CCC/C=C/c2ccc(C3=NCCO3)cc2)s1 ?
Output: 0.28 µM

---

I'd be grateful if you could share measured pEC50 for these entries.
System: Poliovirus 1
Experimental details: Antiviral activity against Human poliovirus 1 10694 infected in human HeLa cells assessed as reduction in virus-induced cytopathic effect after 72 hrs by crystal violet staining-based assay
Type: functional, organism-based
Experimental conditions: Enterovirus C, 10694, HeLa
# pEC50 is unitless: minus log10 of the molar concentration; print number only

Task: Lookup: pEC50 / Poliovirus 1 / Cc1ccc(C(=O)CCCCOc2ccc(C3=NCCO3)cc2)s1
Output: 5.14

Task: Form: Entry = Cc1ccc(C(=O)CCCCSc2ccc(C3=NCCO3)cc2)s1 | System = Poliovirus 1 | pEC50 = ____
Output: 5.21

Task: Item Cc1ccc(C(=O)CCC/C=C/c2ccc(C3=NCCO3)cc2)s1 with Poliovirus 1 - pEC50?
Output: 5.64

---

Experimental details: Cytotoxicity against human HeLa cells after 72 hrs by ATP-bioluminescence cell viability assay
Type: cell-based
Observation type: CC50 at 72 h

Task: What value of measured CC50 at 72 h is listed for Cc1ccc(C(=O)CCC/C=C/c2ccc(C3=NCCO3)cc2)s1 ?
Output: > 50 µM

Task: Name the recorded CC50 at 72 h for Cc1ccc(C(=O)CCCCSc2ccc(C3=NCCO3)cc2)s1 .
Output: 20 µM

Task: Entry Cc1ccc(C(=O)CCCCOc2ccc(C3=NCCO3)cc2)s1 : reported CC50 at 72 h = ?
Output: > 50 µM

Just for reference, ChEMBL document CHEMBL4371031 is where these values come from.
